- test.system: purified wild type MGL (wt-MGLL 6H-11-313) (Homo sapiens, UniProt Q99685)
- Sequence (Q99685 whole entry): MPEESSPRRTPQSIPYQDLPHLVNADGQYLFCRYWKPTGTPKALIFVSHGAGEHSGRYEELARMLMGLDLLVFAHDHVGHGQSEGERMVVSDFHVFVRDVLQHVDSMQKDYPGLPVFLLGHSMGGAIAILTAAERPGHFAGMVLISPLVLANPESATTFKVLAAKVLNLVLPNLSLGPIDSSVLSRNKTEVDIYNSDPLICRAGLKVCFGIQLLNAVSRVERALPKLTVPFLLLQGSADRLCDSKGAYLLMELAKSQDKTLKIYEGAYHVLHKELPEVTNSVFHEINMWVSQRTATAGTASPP
- measurement.parameters: read-out: MGL wild type inh IC50, substrate 4MU-B 10 μM, 37° C.
value.type: log10(IC50) (log10 of the value in nM)
Record value = log10 of IC50 given in nM.

O=C(c1ccccc1)N1CC(N2CCN(C(=O)c3cc4cc(Cl)ccc4o3)CC2)C1	3.64

Query :: Tell me the measured log10(IC50) of `O=C(c1ccc(Oc2cccc(Cl)c2)nc1)N1CC(N2CCN(C(=O)c3cscn3)CC2)C1` , please.
Result :: 3.27

Query :: Tell me the measured log10(IC50) of `COc1ccc(-c2cccc(C(=O)N3CC(N4CCN(C(=O)c5cscn5)CC4)C3)c2)cc1` , please.
Result :: 2.80

Query :: Tell me the measured log10(IC50) of `O=C(c1nccs1)N1CCN(C2CN(C(=O)c3nn(-c4ccc(Cl)cc4Cl)c4c3CCCC4)C2)CC1` , please.
Result :: 3.05

Query :: Tell me the measured log10(IC50) of `Cc1c(C(=O)N2CCN(C3CN(C(=O)c4nccs4)C3)CC2)n(C)c2ccc(Cl)cc12` , please.
Result :: 2.80

Query :: Tell me the measured log10(IC50) of `O=C(c1ccccc1)N1CCN(C2CN(C(=O)c3ccc4c(c3)c(F)cn4-c3ccccc3)C2)CC1` , please.
Result :: 2.16

Query :: Tell me the measured log10(IC50) of `O=C(c1ccccc1)N1CCN(C2CN(C(=O)c3ccc4c(ccn4-c4ccccc4)c3F)C2)CC1` , please.
Result :: 2.45

Query :: Tell me the measured log10(IC50) of `O=C(c1ccc[nH]1)N1CCN(C2CN(C(=O)c3nn(-c4ccc(Cl)cc4Cl)c4c3CCCC4)C2)CC1` , please.
Result :: 3.97

* * *

- test.system: MGL (Rattus norvegicus, UniProt Q8R431)
- Construct: one g rat brain was homogenized
- Sequence (Q8R431 whole entry): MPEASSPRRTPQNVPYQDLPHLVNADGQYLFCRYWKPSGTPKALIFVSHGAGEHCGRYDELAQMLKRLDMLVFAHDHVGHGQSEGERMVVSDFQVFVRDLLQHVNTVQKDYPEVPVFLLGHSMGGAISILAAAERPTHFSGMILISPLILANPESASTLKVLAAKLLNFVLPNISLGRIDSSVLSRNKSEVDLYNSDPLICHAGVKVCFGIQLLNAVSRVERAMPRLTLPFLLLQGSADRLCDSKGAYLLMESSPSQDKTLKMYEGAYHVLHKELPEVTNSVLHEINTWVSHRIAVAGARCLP
- assay.explanation: 2-AG Accumulation Assay (rat brain homogenate)
- Assay type: biochemical
- measurement.parameters: compound 10 μM, percent of vehicle 2-AG accumulation
Known Rat Brain 2AG % VehCntrl (%) @10 μM of a selection of compounds
Enter your answer as a number in %; do not include the unit.

Query :: Tell me the measured Rat Brain 2AG % VehCntrl (%) @10 μM of O=C(c1ccc(OCc2cccc(Cl)c2Cl)c(F)c1)N1CC(N2CCN(C(=O)c3nccs3)CC2)C1 [Cpd 405] , please.
Result :: 1591

Query :: Tell me the measured Rat Brain 2AG % VehCntrl (%) @10 μM of O=C(c1nccs1)N1CCN(C2CN(C(=O)c3ccc(-c4cccc(C(F)(F)F)c4)cc3Cl)C2)CC1 [Cpd 250] , please.
Result :: 1327

Query :: Tell me the measured Rat Brain 2AG % VehCntrl (%) @10 μM of O=C(c1ccc(-c2cccc([N+](=O)[O-])c2)cc1)N1CC(N2CCN(C(=O)c3nccs3)CC2)C1 [Cpd 183] , please.
Result :: 1090

Query :: Tell me the measured Rat Brain 2AG % VehCntrl (%) @10 μM of O=C(c1ccc(Oc2cccc(Cl)c2)c(F)c1)N1CC(N2CCN(C(=O)c3nccs3)CC2)C1 [Cpd 875] , please.
Result :: 1285

Query :: Tell me the measured Rat Brain 2AG % VehCntrl (%) @10 μM of O=C(c1ccc(-c2ccc(C(F)(F)F)cc2)cc1)N1CC(N2CCN(C(=O)c3nccs3)CC2)C1 [Cpd 150] , please.
Result :: 1104

Query :: Tell me the measured Rat Brain 2AG % VehCntrl (%) @10 μM of O=C(c1ccc(SCc2ccc(Cl)cc2)cc1)N1CC(N2CCN(C(=O)c3nccs3)CC2)C1 [Cpd 415] , please.
Result :: 1629

Query :: Tell me the measured Rat Brain 2AG % VehCntrl (%) @10 μM of O=C(c1ccccc1)N1CCN(C2CN(C(=O)c3ccc4nc(-c5cccc(C(F)(F)F)c5)oc4c3)C2)CC1 [Cpd 131] , please.
Result :: 1406

Query :: Tell me the measured Rat Brain 2AG % VehCntrl (%) @10 μM of CC(=O)c1ccc(-c2ccc(C(=O)N3CC(N4CCN(C(=O)c5nccs5)CC4)C3)cc2)cc1 [Cpd 209] , please.
Result :: 1681
